- experiment.notes: RP, Thermo Scientific Acclaim RSLC 120 C18, 100 × 2.1 mm, 2.2 µm, 30 °C, 0.2 mL/min, estimated dead time 1.1 min; A: 90% water + 10% methanol + 0.01% formic acid + 5 mM ammonium formate, pH 3.61; B: methanol + 0.01% formic acid + 5 mM ammonium formate, pH 3.61; gradient (min/%B) 0/1 1/1 2/39 13/99.9 15/99.9 15.1/1 20.1/1
- test.context: stereoisomer not certain
measured.parameter: LC retention time (min)
Numbers only here, please. The scale is min.

Ask: // returns reported LC retention time for input CCN(CC)CCNC(=O)c1cc(S(C)(=O)=O)ccc1OC [Tiapride]
Reply: 3.41

Ask: // returns reported LC retention time for input CC(C)(C)NCC(O)COc1cc(C(=O)O)ccc1Cl (stereo unspecified) [Bupranolol- 5-Carboxy]
Reply: 5.01

Ask: // returns reported LC retention time for input NS(=O)(=O)c1cc2c(cc1Cl)NC(CSCc1ccccc1)=NS2(=O)=O [Benzthiazide]
Reply: 6.81

Ask: // returns reported LC retention time for input CCCCN(CCCC)CCCC [Tributylamine]
Reply: 5.28

Ask: // returns reported LC retention time for input CCN(Cc1ccncc1)C(=O)C(CO)c1ccccc1 (stereo unspecified) [Tropicamide]
Reply: 6.03

Ask: // returns reported LC retention time for input CN(Cc1cc(Br)cc(Br)c1N)C1CCCCC1 [Bromhexine]
Reply: 10

###

- experiment.notes: RP, Thermo Scientific Acclaim RSLC 120 C18, 100 × 2.1 mm, 2.2 µm, 30 °C, 0.2 mL/min, estimated dead time 1.1 min; A: 90% water + 10% methanol + 0.01% formic acid + 5 mM ammonium formate, pH 3.61; B: methanol + 0.01% formic acid + 5 mM ammonium formate, pH 3.61; gradient (min/%B) 0/1 1/1 2/39 13/99.9 15/99.9 15.1/1 20.1/1
- test.context: stereoisomer not certain
Each record is given label 1 if its reported LC retention time is strictly below 7 min. Records at or above 7 min are given label 0.

Ask: Could you please tell me whether LC retention time recorded for CCNc1nc(NC(C)C)nc(SC)n1 [Ametryn] is less than 7 min?
Reply: label 0

Ask: Could you please tell me whether LC retention time recorded for CCCC(C(=O)c1ccccc1)N1CCCC1 (stereo not drawn) [PVP- Alpha] is less than 7 min?
Reply: label 1

Ask: Could you please tell me whether LC retention time recorded for CC(Cc1ccc(C(C)(C)C)cc1)CN1CCCCC1 (stereo not given) [Fenpropidin] is less than 7 min?
Reply: label 0

Ask: Could you please tell me whether LC retention time recorded for CCOC(=O)C(Cl)=Cc1cc(N2C(=O)C3=C(CCCC3)C2=O)ccc1Cl [Cinidon-ethyl] is less than 7 min?
Reply: label 0

Ask: Could you please tell me whether LC retention time recorded for O=C1CCc2ccc(OCCCCN3CCN(c4cccc(Cl)c4Cl)CC3)cc2N1 [Aripiprazole] is less than 7 min?
Reply: label 0

Ask: Could you please tell me whether LC retention time recorded for CC(=O)c1ccc2c(c1)N(CCCN(C)C)c1ccccc1S2 [Acepromazine] is less than 7 min?
Reply: label 0

Ask: Could you please tell me whether LC retention time recorded for CCCCOc1cc(C(=O)OCCN(CC)CC)ccc1N [Oxybuprocaine] is less than 7 min?
Reply: label 1

Ask: Could you please tell me whether LC retention time recorded for NC1CC1c1ccccc1 (stereo not given) [Tranylcypromine] is less than 7 min?
Reply: label 1

Ask: Could you please tell me whether LC retention time recorded for OCC(O)CN1CCN(c2ccccc2)CC1 (stereo not given) [Dropropizine] is less than 7 min?
Reply: label 1
